# Measurement protocol: Inhibition of 6-His tagged-G4SG4 fused ZIKV NS2B (49 to 95 residues) R95A mutant-NS3 (1 to 170 residue) R29G mutant expressed in Escherichia coli BL21 (DE3) using Bz-Nle-K-RR-AMC substrate preincubated for 10 mins followed by substrate addition and measured after 30 mins by fluorescence assay
# Design: species or system Zika virus
Endpoint: pIC50
pIC50 here: minus log base 10 of the concentration, concentration in moles per litre.

The compound listed as NCCCC[C@H](NC(=O)Cc1ccccc1)C(=O)N[C@@H](CCCCN)C(=O)N[C@H](C(=O)NCC1CCCCC1)c1ccccc1 has a reported pIC50 of 6.16
